Data origin: ChEMBL document CHEMBL3885861

Collected Mono values appear next to each entry.
# Organism: Rattus norvegicus
# protocol text: Open TG-GATES - Regimen: Daily Repeat
# Assay type: toxicity, organism-based, Sprague-Dawley
# Set-up: regimen Daily Repeat, gender Male, age 6 weeks
# test context: in vivo, po, 0 mg/kg, 72 h, tissue Blood, route gavage, dose level Control, time 3 day

- compound: "CC[C@@H](CO)NCCN[C@@H](CC)CO"
  Mono / %: 3.2
- compound: "CCN(CC)N=O"
  Mono / %: 2.6
- compound: "CC(N)=O [ACETAMIDE]"
  Mono / %: 3.6
- compound: "CC(=O)N1CCN(c2ccc(OCC3COC(Cn4ccnc4)(c4ccc(Cl)cc4Cl)O3)cc2)CC1 (stereo not drawn)"
  Mono / %: 2.2
- compound: "O=C(O)COc1nn(Cc2ccccc2)c2ccccc12"
  Mono / %: 8.2
- compound: "CC(C)Cc1ccc(C(C)C(=O)O)cc1 (stereo not drawn)"
  Mono / %: 2.8
- compound: "CC(=O)Nc1ccc2c(c1)Cc1ccccc1-2"
  Mono / %: 3
- compound: "CC(CCc1ccccc1)NCC(O)c1ccc(O)c(C(N)=O)c1 (stereo not drawn)"
  Mono / %: 3.6

###

# Organism: Rattus norvegicus
# protocol text: Open TG-GATES - Regimen: Daily Repeat
# Type: toxicity, organism-based, Sprague-Dawley
# Parameters: regimen Daily Repeat, gender Male, age 6 weeks
# test context: in vivo, po, 0 mg/kg, […], tissue Plasma, route gavage, dose level Control, time 28 day
Collected AST values appear next to each entry.
readout kind: AST (IU/L)

- compound: "CCN(CC)N=O"
  readout kind: "AST"
  experimental value: 63.6
- compound: "O=C(O)COc1nn(Cc2ccccc2)c2ccccc12"
  readout kind: "AST"
  experimental value: 64.4
- compound: "CC(=O)N1CCN(c2ccc(OCC3COC(Cn4ccnc4)(c4ccc(Cl)cc4Cl)O3)cc2)CC1 (stereo not drawn)"
  readout kind: "AST"
  experimental value: 73.6
- compound: "CC(CCc1ccccc1)NCC(O)c1ccc(O)c(C(N)=O)c1 (stereo not drawn)"
  readout kind: "AST"
  experimental value: 67
- compound: "CC(C)Cc1ccc(C(C)C(=O)O)cc1 (stereo not drawn)"
  readout kind: "AST"
  experimental value: 66.2
- compound: "CC(N)=O [ACETAMIDE]"
  readout kind: "AST"
  experimental value: 64.6
- compound: "CC[C@@H](CO)NCCN[C@@H](CC)CO"
  readout kind: "AST"
  experimental value: 67
- compound: "CC(=O)Nc1ccc2c(c1)Cc1ccccc1-2"
  readout kind: "AST"
  experimental value: 61.8

###

Collected KIDNEY_R values appear next to each entry.
# Species: Rattus norvegicus
# protocol text: Open TG-GATES - Regimen: Single
# Assay type: toxicity, organism-based, Sprague-Dawley
# Parameters: regimen Single, gender Male, age 6 weeks
# test context: in vivo, po, 0 mg/kg, 9 h, tissue Kidney, route gavage, dose level Control

- molecule: "CCN(CC)N=O"
  KIDNEY_R (g): 1
- molecule: "CC[C@@H](CO)NCCN[C@@H](CC)CO"
  KIDNEY_R (g): 1
- molecule: "CC(=O)Nc1ccc2c(c1)Cc1ccccc1-2"
  KIDNEY_R (g): 1
- molecule: "CC(=O)N1CCN(c2ccc(OCC3COC(Cn4ccnc4)(c4ccc(Cl)cc4Cl)O3)cc2)CC1 (configuration not stated)"
  KIDNEY_R (g): 1
- molecule: "CC(CCc1ccccc1)NCC(O)c1ccc(O)c(C(N)=O)c1 (configuration not stated)"
  KIDNEY_R (g): 0.9
- molecule: "O=C(O)COc1nn(Cc2ccccc2)c2ccccc12"
  KIDNEY_R (g): 1
- molecule: "CC(C)Cc1ccc(C(C)C(=O)O)cc1 (configuration not stated)"
  KIDNEY_R (g): 0.9

###

# Organism: Rattus norvegicus
# protocol text: Open TG-GATES - Regimen: Daily Repeat
# Assay type: toxicity, organism-based, Sprague-Dawley
# Design: regimen Daily Repeat, gender Male, age 6 weeks
# test context: in vivo, po, 0 mg/kg, 72 h, tissue Blood, route gavage, dose level Control, time 3 day
readout kind: RBC (x10_4/ul)

- molecule: "CC(C)Cc1ccc(C(C)C(=O)O)cc1 (stereo not drawn) [IBUPROFEN]"
  readout kind: "RBC"
  experimental value: 593
- molecule: "CC[C@@H](CO)NCCN[C@@H](CC)CO [ETHAMBUTOL]"
  readout kind: "RBC"
  experimental value: 619.8
- molecule: "CC(=O)Nc1ccc2c(c1)Cc1ccccc1-2 [2-ACETYLAMINOFLUORENE]"
  readout kind: "RBC"
  experimental value: 648.4
- molecule: "CC(=O)N1CCN(c2ccc(OCC3COC(Cn4ccnc4)(c4ccc(Cl)cc4Cl)O3)cc2)CC1 (stereo not drawn) [KETOCONAZOLE]"
  readout kind: "RBC"
  experimental value: 604.8
- molecule: "CC(CCc1ccccc1)NCC(O)c1ccc(O)c(C(N)=O)c1 (stereo not drawn) [LABETALOL]"
  readout kind: "RBC"
  experimental value: 627
- molecule: "O=C(O)COc1nn(Cc2ccccc2)c2ccccc12 [BENDAZAC]"
  readout kind: "RBC"
  experimental value: 661.6
- molecule: "CCN(CC)N=O [N-NITROSODIETHYLAMINE]"
  readout kind: "RBC"
  experimental value: 638.8
- molecule: "CC(N)=O [ACETAMIDE]"
  readout kind: "RBC"
  experimental value: 658.2

###

Collected RBC values appear next to each entry.
# Species on record: Rattus norvegicus
# protocol text: Open TG-GATES - Regimen: Daily Repeat
# Format: toxicity, organism-based, Sprague-Dawley
# Set-up: regimen Daily Repeat, gender Male, age 6 weeks
# test context: in vivo, po, 0 mg/kg, […], tissue Blood, route gavage, dose level Control, time 14 day

- molecule: "O=C(O)COc1nn(Cc2ccccc2)c2ccccc12"
  units of measure: "x10_4/ul"
  RBC: 684.4
- molecule: "CC(C)Cc1ccc(C(C)C(=O)O)cc1 (stereo not drawn)"
  units of measure: "x10_4/ul"
  RBC: 686.2
- molecule: "CC(CCc1ccccc1)NCC(O)c1ccc(O)c(C(N)=O)c1 (stereo not drawn)"
  units of measure: "x10_4/ul"
  RBC: 689
- molecule: "CC(=O)Nc1ccc2c(c1)Cc1ccccc1-2"
  units of measure: "x10_4/ul"
  RBC: 716.4
- molecule: "CCN(CC)N=O"
  units of measure: "x10_4/ul"
  RBC: 697
- molecule: "CC(=O)N1CCN(c2ccc(OCC3COC(Cn4ccnc4)(c4ccc(Cl)cc4Cl)O3)cc2)CC1 (stereo not drawn)"
  units of measure: "x10_4/ul"
  RBC: 685
- molecule: "CC[C@@H](CO)NCCN[C@@H](CC)CO"
  units of measure: "x10_4/ul"
  RBC: 701.6
- molecule: "CC(N)=O [ACETAMIDE]"
  units of measure: "x10_4/ul"
  RBC: 685.6

###

# Organism: Rattus norvegicus
# protocol text: Open TG-GATES - Regimen: Single
# Assay type: toxicity, organism-based, Sprague-Dawley
# Set-up: regimen Single, gender Male, age 6 weeks
# test context: in vivo, po, 0 mg/kg, 24 h, tissue Plasma, route gavage, dose level Control
# strict inequality: DBIL < 0.01 mg/dL yields true (1), everything else yields false (0)

- molecule: "CC(CCc1ccccc1)NCC(O)c1ccc(O)c(C(N)=O)c1 (configuration not stated)"
  class label: "false (0)"
- molecule: "O=C(O)COc1nn(Cc2ccccc2)c2ccccc12"
  class label: "true (1)"
- molecule: "CC(C)Cc1ccc(C(C)C(=O)O)cc1 (configuration not stated)"
  class label: "true (1)"
- molecule: "CC[C@@H](CO)NCCN[C@@H](CC)CO"
  class label: "true (1)"
- molecule: "CC(=O)N1CCN(c2ccc(OCC3COC(Cn4ccnc4)(c4ccc(Cl)cc4Cl)O3)cc2)CC1 (configuration not stated)"
  class label: "true (1)"
- molecule: "CCN(CC)N=O"
  class label: "false (0)"
- molecule: "CC(=O)Nc1ccc2c(c1)Cc1ccccc1-2"
  class label: "false (0)"

###

# Species: Rattus norvegicus
# protocol text: Open TG-GATES - Regimen: Daily Repeat
# Type: toxicity, organism-based, Sprague-Dawley
# Design: regimen Daily Repeat, gender Male, age 6 weeks
# test context: in vivo, po, 0 mg/kg, […], tissue Liver, route gavage, dose level Control, time 28 day

- compound: "CCN(CC)N=O"
  LIVER [g]: 14.9
- compound: "CC(=O)N1CCN(c2ccc(OCC3COC(Cn4ccnc4)(c4ccc(Cl)cc4Cl)O3)cc2)CC1 (configuration not stated)"
  LIVER [g]: 15.3
- compound: "O=C(O)COc1nn(Cc2ccccc2)c2ccccc12"
  LIVER [g]: 16.2
- compound: "CC(N)=O [ACETAMIDE]"
  LIVER [g]: 16
- compound: "CC(CCc1ccccc1)NCC(O)c1ccc(O)c(C(N)=O)c1 (configuration not stated)"
  LIVER [g]: 16.1
- compound: "CC[C@@H](CO)NCCN[C@@H](CC)CO"
  LIVER [g]: 16.5
- compound: "CC(=O)Nc1ccc2c(c1)Cc1ccccc1-2"
  LIVER [g]: 16.7
